targetSystem: UniProt:P97391
Sequence (P97391 whole entry): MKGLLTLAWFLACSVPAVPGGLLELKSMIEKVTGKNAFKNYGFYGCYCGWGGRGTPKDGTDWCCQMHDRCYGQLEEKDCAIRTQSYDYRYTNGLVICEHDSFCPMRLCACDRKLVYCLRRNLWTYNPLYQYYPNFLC
pIC50: −log10 of the molar value.

compoundStructure | pIC50
Cc1c(C(=O)C(N)=O)c2c(OCC(=O)O)cccn2c1Cc1ccccc1-c1ccccc1 | 8.00

---

targetSystem: Group 10 secretory phospholipase A2 (Mus musculus, UniProt Q9QXX3)
Sequence (Q9QXX3 whole entry): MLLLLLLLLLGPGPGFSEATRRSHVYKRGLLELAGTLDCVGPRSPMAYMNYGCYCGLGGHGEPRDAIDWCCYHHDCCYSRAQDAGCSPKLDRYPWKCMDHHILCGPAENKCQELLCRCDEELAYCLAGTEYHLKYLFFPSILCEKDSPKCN
assayName: Inhibition of mouse group X phospholipase A2 incubated for 10 to 20 mins cells by radiometric assay
valueKind: IC50 (nM)

compoundStructure | reading
Cc1c(C(=O)C(N)=O)c2c(OCC(=O)O)cccn2c1Cc1ccccc1-c1ccccc1 | 100
